# experimental system: UniProt:Q9NR71
# Sequence (Q9NR71 99-780 limits assumed): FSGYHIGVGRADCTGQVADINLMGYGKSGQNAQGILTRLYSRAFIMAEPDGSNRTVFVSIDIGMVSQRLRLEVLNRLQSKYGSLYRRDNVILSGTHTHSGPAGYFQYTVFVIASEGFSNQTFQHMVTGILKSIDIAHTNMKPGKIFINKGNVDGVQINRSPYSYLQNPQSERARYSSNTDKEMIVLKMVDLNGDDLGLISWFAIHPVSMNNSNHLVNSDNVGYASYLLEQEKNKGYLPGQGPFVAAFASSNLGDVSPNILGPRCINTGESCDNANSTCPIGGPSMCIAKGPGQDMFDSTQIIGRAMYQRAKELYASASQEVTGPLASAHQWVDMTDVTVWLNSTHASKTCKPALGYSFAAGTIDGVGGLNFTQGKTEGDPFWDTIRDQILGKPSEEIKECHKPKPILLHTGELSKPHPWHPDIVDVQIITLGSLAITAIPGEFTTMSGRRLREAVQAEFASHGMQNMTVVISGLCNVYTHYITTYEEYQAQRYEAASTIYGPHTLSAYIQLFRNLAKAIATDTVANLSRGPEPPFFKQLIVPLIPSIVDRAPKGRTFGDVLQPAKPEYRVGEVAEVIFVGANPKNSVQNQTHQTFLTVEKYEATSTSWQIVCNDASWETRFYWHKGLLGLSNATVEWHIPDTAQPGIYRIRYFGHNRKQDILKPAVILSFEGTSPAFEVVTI
readout type: IC50 (µM)

>  <molecule>
CC(/C=C/C(=O)NO)=C\[C@@H](C)C(=O)c1ccc(N(C)C)cc1 [TSA, Trichostatin A]

>  <uom>
µM

>  <result>
4

$$$$

# credit: paper PMC7749003
